- studyTarget: 5-hydroxytryptamine receptor 2A (Rattus norvegicus)
- testDescription: Displacement of [3H]ketanserin from 5HT2A receptor in rat cortex membrane at 10^-6 M by radioligand binding assay
- Type: cell membranes
// class assignment uses inhibition with these ranges: 0: < 40%; 1: ≥ 40% and < 60%; 2: ≥ 60%

[in] Which of the defined bands does the recorded inhibition of O=c1c2cnc3ccccc3c2ncn1CCCN1CCN(c2ccc(Cl)cc2)CC1 sit within?
[out] 2

[in] # iterate: Cc1ccc2c(c1)ncc1c(=O)n(CCCN3CCN(c4ccc(F)cc4)CC3)cnc12
[out] 1

[in] # iterate: Cc1ccc2c(c1)ncc1c(=O)n(CCCCN3CCN(c4ccc(F)cc4)CC3)cnc12
[out] 1

[in] # iterate: O=c1c2cnc3ccccc3c2ncn1CCCN1CCN(c2cccc(Cl)c2)CC1
[out] 2

[in] # iterate: Cc1ccccc1N1CCN(CCn2cnc3c(cnc4ccccc43)c2=O)CC1
[out] 0

[in] # iterate: O=c1c2cnc3ccccc3c2ncn1CCN1CCN(c2ccccc2Cl)CC1
[out] 0

[in] # iterate: COc1ccccc1N1CCN(CCCCn2cnc3c(cnc4cc(C)ccc43)c2=O)CC1
[out] 1

[in] # iterate: COc1ccccc1N1CCN(CCn2cnc3c(cnc4ccc(C)cc43)c2=O)CC1
[out] 0

[in] # iterate: COc1ccccc1N1CCN(CCn2cnc3c(cnc4ccccc43)c2=O)CC1
[out] 0

[in] # iterate: Cc1ccccc1N1CCN(CCCCn2cnc3c(cnc4ccccc43)c2=O)CC1
[out] 2

----------
- studyTarget: 5-hydroxytryptamine receptor 2A (Rattus norvegicus)
- testDescription: Displacement of [3H]ketanserin from 5HT2A receptor in rat cortex membrane at 10^-6 M by radioligand binding assay
- Assay type: cell membranes
I'd be grateful if you could share measured inhibition for these entries.
Could you give me the number in %? Just the number is fine.

[in] If you can, please state the reported inhibition value of Cc1ccc2ncc3c(=O)n(CCCN4CCN(c5ccccc5)CC4)cnc3c2c1 .
[out] 28

[in] # iterate: Cc1ccc2c(c1)ncc1c(=O)n(CCCCN3CCN(c4ccccc4F)CC3)cnc12
[out] 45

[in] # iterate: COc1ccccc1N1CCN(CCCCn2cnc3c(cnc4ccccc43)c2=O)CC1
[out] 64

[in] # iterate: O=c1c2cnc3ccccc3c2ncn1CCN1CCN(c2ccc(Cl)cc2)CC1
[out] 4

[in] # iterate: COc1ccc(N2CCN(CCCn3cnc4c(cnc5ccccc54)c3=O)CC2)cc1
[out] 23

----------
- studyTarget: 5-hydroxytryptamine receptor 1A (Rattus norvegicus)
- testDescription: Displacement of [3H]8-OH-DPAT from 5HT1A receptor in rat hippocampal membrane at 10^-6 M by radioligand binding assay
- Type: cell membranes
- testContext: Hippocampus
measuredMetric: inhibition (%)
Could you give me the number in %? Just the number is fine.

[in] If you can, please state the reported inhibition value of O=c1c2cnc3ccccc3c2ncn1CCN1CCN(c2ccccc2)CC1 .
[out] 66

[in] # iterate: O=c1c2cnc3ccccc3c2ncn1CCCN1CCN(c2cccc(C(F)(F)F)c2)CC1
[out] 85

[in] # iterate: Cc1ccccc1N1CCN(CCCn2cnc3c(cnc4ccccc43)c2=O)CC1
[out] 81

[in] # iterate: COc1ccc(N2CCN(CCCn3cnc4c(cnc5ccccc54)c3=O)CC2)cc1
[out] 0

[in] # iterate: O=c1c2cnc3ccccc3c2ncn1CCN1CCN(c2cccc(Cl)c2)CC1
[out] 93

[in] # iterate: O=c1c2cnc3ccccc3c2ncn1CCCCN1CCN(c2cccc(C(F)(F)F)c2)CC1
[out] 89

[in] # iterate: COc1cccc(N2CCN(CCCCn3cnc4c(cnc5ccccc54)c3=O)CC2)c1
[out] 90

[in] # iterate: COc1ccc(N2CCN(CCn3cnc4c(cnc5ccccc54)c3=O)CC2)cc1
[out] 6

[in] # iterate: Cc1ccc2c(c1)ncc1c(=O)n(CCCCN3CCN(c4ccccc4F)CC3)cnc12
[out] 90

[in] # iterate: O=c1c2cnc3ccccc3c2ncn1CCCCN1CCN(c2ccccc2)CC1
[out] 93

[in] # iterate: Cc1ccc2c(c1)ncc1c(=O)n(CCCCN3CCN(c4ccc(F)cc4)CC3)cnc12
[out] 60

[in] # iterate: Cc1ccc2ncc3c(=O)n(CCCN4CCN(c5ccc(F)cc5)CC4)cnc3c2c1
[out] 67

[in] # iterate: COc1ccccc1N1CCN(CCn2cnc3c(cnc4ccc(C)cc43)c2=O)CC1
[out] 88

[in] # iterate: Cc1ccc2ncc3c(=O)n(CCCN4CCN(c5ccccc5)CC4)cnc3c2c1
[out] 86

[in] # iterate: Cc1ccccc1N1CCN(CCCCn2cnc3c(cnc4ccccc43)c2=O)CC1
[out] 96

[in] # iterate: Cc1ccccc1N1CCN(CCn2cnc3c(cnc4ccccc43)c2=O)CC1
[out] 84

[in] # iterate: COc1cccc(N2CCN(CCn3cnc4c(cnc5ccccc54)c3=O)CC2)c1
[out] 82

[in] # iterate: COc1ccc(N2CCN(CCCCn3cnc4c(cnc5ccccc54)c3=O)CC2)cc1
[out] 11

[in] # iterate: Cc1ccc2ncc3c(=O)n(CCCCN4CCN(c5ccccc5F)CC4)cnc3c2c1
[out] 94

[in] # iterate: O=c1c2cnc3ccccc3c2ncn1CCN1CCN(c2ccc(-c3ncccn3)cc2)CC1
[out] 10

[in] # iterate: Cc1ccc2ncc3c(=O)n(CCN4CCN(c5cccc(C(F)(F)F)c5)CC4)cnc3c2c1
[out] 82
